This section presents binders with their documented log10 koff values.
MEASURED ON: T1, Taq DNA polymerase (Thermus aquaticus, UniProt P19821 1-832)
T1 construct: also called Taq enzyme; Taq DNA enzyme
PROTOCOL DETAILS: AMC sensor, antibody immobilised
// units: s⁻¹ (pre-log); metric: koff; scale: log10

Check out these entries, answers already filled in.
• Mutation 1-29 (antibody, V domains shown, Mutation 1 background; CDRs built) VH: QVQLQQPGAELVKPGASVRLSCQTSVETFTTYYIYWVKQRPGEGLEWIGGLNPTSNPVFNEKFKSKATLTVDTSSSTAYMQLSSLTSVDSAVYYCTRSIIRRGYYFDYWGQGTALTVSS VL: DIQMTQTTSSLSASLGDRVTISCRASQDINNYINWYQQKPDGTIKLLIYYTSRLNSGIPSRFSGSGSGTDYSLTIANLEQEDIATYFCQQDDTIPVTFGAGTKVELKR = -5.95
• Mutation 1-20 (antibody, V domains shown, Mutation 1 background; CDRs built) VH: QVQLQQPGAELVKPGASVRLSCQTSVETFTTYYIYWVKQRPGEGLEWIGGLNPTSNPVFNEKFKSKATLTVDTSSSTAYMQLSSLTSVDSAVYYCTRSIIRRGYYFDYWGQGTALTVSS VL: DIQMTQTTSSLSASLGDRVTISCRASQDIQNYLNWYQQKPDGTIKLLIYYTSRLNSGIPSRFSGSGSGTDYSLTIANLEQEDIATYFCQQDDTIPLTFGAGTKVELKR = -4.19
• Mutation 1-60 (antibody, V domains shown, Mutation 1 background; CDRs built) VH: QVQLQQPGAELVKPGASVRLSCQTSVNTFTTYYIYWVKQRPGEGLEWIGGVNPTSGGPVFNEKFKSKATLTVDTSSSTAYMQLSSLTSVDSAVYYCTRSLLRRGYYFDYWGQGTALTVSS VL: DIQMTQTTSSLSASLGDRVTISCRASQDIQNYINWYQQKPDGTIKLLIYYTSRLHSGVPSRFSGSGSGTDYSLTIANLEQEDIATYFCQQDDTLPVTFGAGTKVELKR = -5.58

Query: Tell me log10 koff reported for Mutation 1-53 (antibody, V domains shown, Mutation 1 background; CDRs built) VH: QVQLQQPGAELVKPGASVRLSCQTSVNTFSTYYIYWVKQRPGEGLEWIGGINPTSNPVFNEKFKSKATLTVDTSSSTAYMQLSSLTSVDSAVYYCTRSLIRRGYYFDYWGQGTALTVSS VL: DIQMTQTTSSLSASLGDRVTISCRASQDINNYINWYQQKPDGTIKLLIYYTSRLHSGLPSRFSGSGSGTDYSLTIANLEQEDIATYFCQQDDTLPVTFGAGTKVELKR
Result: -4.42

Query: Tell me log10 koff reported for Mutation 1-1 (antibody, V domains shown, Mutation 1 background; CDRs built) VH: QVQLQQPGAELVKPGASVRLSCQTSVDTFTTYYIYWVKQRPGEGLEWIGGINPTSNPVFNEKFKSKATLTVDTSSSTAYMQLSSLTSVDSAVYYCTRSIVRRGYYFDYWGQGTALTVSS VL: DIQMTQTTSSLSASLGDRVTISCRASQDINNYVNWYQQKPDGTIKLLIYYTSRLQSGVPSRFSGSGSGTDYSLTIANLEQEDIATYFCQQDDTIPITFGAGTKVELKR
Result: -4.80
